IC50 values for the compounds below.
target: aldose reductase (Homo sapiens); construct: purchased Biovision; assay: Aldose Reductase Inhibitor Screening Kit (NADPH absorbance at 340 nm); format: biochemical; conditions: in vitro, mean ± SEM of two replicates; read-out: Aldose reductase inhibition IC50 (converted)
I'd appreciate it if you wrote the number followed by its unit.

{"columns": ["Compound", "IC50"],
 "data": [
  ["C[C@@H]1O[C@@H](Oc2cc(O)c3c(=O)c(O[C@@H]4O[C@H](CO)[C@@H](O)[C@H](O)[C@H]4O)c(-c4ccc(O)c(O)c4)oc3c2)[C@H](O)[C@H](O)[C@H]1O", "50 µM"],
  ["COc1cc(-c2oc3cc(O)cc(O)c3c(=O)c2O[C@@H]2O[C@H](CO)[C@@H](O)[C@H](O)[C@H]2O)ccc1O [Compound 3, isorhamnetin-3-O-β-D-glucoside]", "45 µM"]
]}

Check aldose reductase (Homo sapiens) data and give IC50 for COc1ccc(-c2oc3cc(O[C@@H]4O[C@@H](C)[C@H](O)[C@@H](O)[C@H]4O)cc(O)c3c(=O)c2O[C@@H]2O[C@@H](C)[C@H](O)[C@@H](O)[C@H]2O)cc1 .
51.8 µM

Check aldose reductase (Homo sapiens) data and give IC50 for COc1cc(-c2oc3cc(O[C@@H]4O[C@@H](C)[C@H](O)[C@@H](O)[C@H]4O)cc(O)c3c(=O)c2O[C@@H]2O[C@@H](C)[C@H](OC(C)=O)[C@@H](O)[C@H]2O)ccc1O .
119 µM

Check aldose reductase (Homo sapiens) data and give IC50 for COc1cc(-c2oc3cc(O[C@@H]4O[C@H](CO)[C@@H](O)[C@H](O)[C@H]4O[C@@H]4O[C@@H](C)[C@H](O)[C@@H](O)[C@H]4O)cc(O)c3c(=O)c2O)ccc1O [Compound 2, isorhamnetin-7-O-β-D-neohesperidoside] .
8.73 µM
